biological target: recombinant human CD3ε/δ heterodimer (human) (UniProt P07766); experiment: ELISA, coated CD3ε/δ
Sequence (P07766 23-126, stated change not applied, chain 1 of 2): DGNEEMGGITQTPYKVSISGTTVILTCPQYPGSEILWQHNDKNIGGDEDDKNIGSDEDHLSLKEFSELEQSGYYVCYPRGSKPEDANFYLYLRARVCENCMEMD
Sequence (P04234 22-105, stated change not applied, chain 2 of 2, further chain): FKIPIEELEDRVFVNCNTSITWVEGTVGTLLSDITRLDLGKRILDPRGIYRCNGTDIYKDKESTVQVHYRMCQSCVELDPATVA
reported.metric: Absorbance (450 nm)
The reply should be a number, written without any unit.

| binder | Absorbance (450 nm) |
| --- | --- |
| A07 (antibody, human IgG1, lambda, L234A L235A, V domains shown) VH: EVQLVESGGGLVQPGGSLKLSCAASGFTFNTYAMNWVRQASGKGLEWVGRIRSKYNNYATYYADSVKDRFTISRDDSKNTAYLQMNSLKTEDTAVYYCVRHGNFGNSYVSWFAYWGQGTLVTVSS VL: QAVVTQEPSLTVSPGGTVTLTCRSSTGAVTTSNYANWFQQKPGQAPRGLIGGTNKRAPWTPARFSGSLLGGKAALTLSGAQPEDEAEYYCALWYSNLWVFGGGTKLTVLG | 1.31 |
| D12 (antibody, human IgG1, lambda, L234A L235A, V domains shown) VH: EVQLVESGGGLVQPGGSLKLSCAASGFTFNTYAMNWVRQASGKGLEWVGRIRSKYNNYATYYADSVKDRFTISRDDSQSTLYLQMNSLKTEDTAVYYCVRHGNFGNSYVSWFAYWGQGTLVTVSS VL: QAVVTQEPSLTVSPGGTVTLTCRSSTGAVTTSNYANWVQQKPGQAPRTLIGGTNKRAPWTPARFSGSLLGDKAALTLSGAQPEDEAEYYCALWYSNLWVFGGGTKLTVLG | 0.095 |
| C05 (antibody, human IgG1, lambda, L234A L235A, V domains shown) VH: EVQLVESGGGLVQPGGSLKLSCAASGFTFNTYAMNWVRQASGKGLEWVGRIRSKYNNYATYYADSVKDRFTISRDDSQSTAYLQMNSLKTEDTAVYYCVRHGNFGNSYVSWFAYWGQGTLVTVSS VL: QAVVTQEPSLTVSPGGTVTLTCRSSTGAVTTSNYANWFQQKPGQAPRGLIYGTNKRAPWTPARFSGSLLGGKAALTLSGAQPEDEAEYYCALWYSNLWVFGGGTKLTVLG | 0.107 |
| D11 (antibody, human IgG1, lambda, L234A L235A, V domains shown) VH: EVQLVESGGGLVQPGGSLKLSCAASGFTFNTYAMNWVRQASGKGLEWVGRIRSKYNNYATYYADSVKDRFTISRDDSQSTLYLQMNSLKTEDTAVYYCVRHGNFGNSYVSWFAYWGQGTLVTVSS VL: QAVVTQEPSLTVSPGGTVTLTCRSSTGAVTTSNYANWVQQKPGQAPRTLIGGTNKRAPWTPARFSGSLLGGKAALTLSGAQPEDEAEYYCALWYSNLWVFGGGTKLTVLG | 0.138 |

Consider the record given below.
get_value(item= G03 (antibody, human IgG1, lambda, L234A L235A, V domains shown) VH: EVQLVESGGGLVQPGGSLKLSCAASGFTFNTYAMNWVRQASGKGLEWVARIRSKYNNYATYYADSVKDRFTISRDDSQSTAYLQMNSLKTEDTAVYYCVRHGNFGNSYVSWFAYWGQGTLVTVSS VL: QAVVTQEPSLTVSPGGTVTLTCRSSTGAVTTSNYANWFQQKPGQAPRTLIGGTNKRAPWTPARFSGSLLGGKAALTLSGAQPEDEAEYYCALWYSNLWVFGGGTKLTVLG , readout=Absorbance (450 nm)) returns 0.098

Attribution: patent US20200317779A1
